Literature survey of IC50 (system: UniProtKB P52333).

Write down the reported IC50 of N#CCC(=O)N1CCC[C@@H](Nc2c(-c3ccccn3)cnc3[nH]ccc23)C1 , test system: UniProtKB P52333.
10 to 100 nM

Write down the reported IC50 of CC(C)(C#N)NC(=O)c1ccc(-c2ccnc(Nc3ccc(N4CCOCC4)cc3)n2)cc1 , test system: UniProtKB P52333.
< 500 nM

Write down the reported IC50 of Cn1cc(-c2cc3nccn3c(-c3cnn(C(CC#N)C4CCCC4)c3)n2)cn1 (centres unmarked) , test system: UniProtKB P52333.
> 1000 nM

Write down the reported IC50 of CCC(CC)n1cc(-c2nc(-c3cnn(CCN[C@@H]4CCN(C)C4=O)c3)cn3nccc23)cn1 , test system: UniProtKB P52333.
1000 to 10000 nM

Write down the reported IC50 of COc1cc(Nc2ncc3ccn(-c4cccc(NS(=O)(=O)C(C)(C)C)c4)c3n2)ccc1N1CCN(C)CC1 , test system: UniProtKB P52333.
82 nM

Write down the reported IC50 of C=CC(=O)Nc1cccc(Oc2nc(Nc3ccc([S+](C)[O-])cc3)nc3ccsc23)c1 (centres unmarked) , test system: UniProtKB P52333.
≤ 50 nM

Write down the reported IC50 of CCOC(=O)Cn1cc(Nc2ncc3ccn(CC4CCCCC4)c3n2)cn1 , test system: UniProtKB P52333.
< 100 nM

Write down the reported IC50 of CNC/C=C/C(=O)N1CC[C@@H](n2nc(-c3ccc(C(=O)Nc4cc(C)ccn4)cc3)c3c(N)ncnc32)C1 , test system: UniProtKB P52333.
> 10000 nM

Write down the reported IC50 of O=C(c1cc(F)ccc1F)c1c[nH]c2nccc(-c3ccsc3)c12 , test system: UniProtKB P52333.
≤ 10000 nM

Write down the reported IC50 of C#CCOc1cccc(Nc2ncc(C)c(Nc3cccc(NC(=O)C=C)c3)n2)c1 , test system: UniProtKB P52333.
< 10 nM

Write down the reported IC50 of N#Cc1ccc(-c2nc(-n3cnc4ccc(F)cc43)nc3c2[nH]c(=O)n3C2CCOCC2)cc1 , test system: UniProtKB P52333.
< 100 nM

Write down the reported IC50 of CCOC(=O)Cn1cc(Nc2ncc3ccn(CC4(C)CCCC4)c3n2)cn1 , test system: UniProtKB P52333.
< 100 nM

Write down the reported IC50 of CCC(=O)c1cnc(Nc2ccc(CN(C)C)cn2)cc1Nc1cc(F)cc(-c2ncn(C)n2)c1OC , test system: UniProtKB P52333.
≥ 500 nM

Write down the reported IC50 of CCC(Cn1ccc2cnc(Nc3cnn(CC(=O)OCC(C)C)c3)nc21)C(C)C (centres unmarked) , test system: UniProtKB P52333.
< 100 nM

Write down the reported IC50 of COC(=O)CC(c1ccccc1)n1cc(-c2nc(-c3cnn(C)c3)cc3nccn23)cn1 (centres unmarked) , test system: UniProtKB P52333.
100 to 1000 nM

Write down the reported IC50 of CCOC(=O)C(C)n1cc(Nc2ncc3ccn(C[C@H]4CC[C@H](O)CC4)c3n2)cn1 (some centres unmarked) , test system: UniProtKB P52333.
< 100 nM

Write down the reported IC50 of Cc1cc(Nc2nccc(-c3ccc(NC(=O)[C@@H]4CC4(F)F)cc3)n2)cnc1C(N)=O , test system: UniProtKB P52333.
346 nM
